meta.source: ChEMBL document CHEMBL1961873

# target-or-test-system: CDK3/Cyclin E (Homo sapiens) (UniProt P24864+Q00526);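 further: reported percentages are mean inhibition values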
# Sequence (P24864 whole entry, looked up): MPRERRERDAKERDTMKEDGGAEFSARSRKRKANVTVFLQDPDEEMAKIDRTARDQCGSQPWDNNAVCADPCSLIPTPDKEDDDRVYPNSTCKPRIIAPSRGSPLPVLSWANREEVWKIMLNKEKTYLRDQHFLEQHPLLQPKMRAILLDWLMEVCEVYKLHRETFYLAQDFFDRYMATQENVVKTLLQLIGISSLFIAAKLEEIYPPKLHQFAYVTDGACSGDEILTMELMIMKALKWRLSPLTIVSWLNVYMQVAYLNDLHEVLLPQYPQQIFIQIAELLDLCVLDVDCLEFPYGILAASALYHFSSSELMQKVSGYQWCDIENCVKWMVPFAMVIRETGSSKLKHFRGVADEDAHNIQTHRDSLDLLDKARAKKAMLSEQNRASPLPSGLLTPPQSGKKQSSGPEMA
# Sequence (Q00526 whole entry, looked up): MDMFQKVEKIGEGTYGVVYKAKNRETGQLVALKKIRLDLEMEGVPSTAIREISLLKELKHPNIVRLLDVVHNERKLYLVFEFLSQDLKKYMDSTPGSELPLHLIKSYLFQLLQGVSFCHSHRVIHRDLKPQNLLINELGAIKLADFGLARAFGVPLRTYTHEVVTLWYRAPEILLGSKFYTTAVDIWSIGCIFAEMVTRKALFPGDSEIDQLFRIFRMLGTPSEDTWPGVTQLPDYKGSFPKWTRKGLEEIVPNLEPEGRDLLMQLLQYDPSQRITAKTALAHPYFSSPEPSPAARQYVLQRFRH
# condition-notes: at 0.1 µM
measured-attribute: inhibition (%)
State just the number; it will be interpreted in %.

State the recorded inhibition for this entry: `COc1cc2c(cc1Nc1nc(Nc3ccsc3C(N)=O)c3cc[nH]c3n1)N(C(=O)CN(C)C)CCC2(C)C`
8.96

State the recorded inhibition for this entry: `CCCN1CCC(c2ccc(Nc3nc(Nc4cc(F)ccc4C(N)=O)c4cc[nH]c4n3)c(OC)c2)CC1`
4.1

State the recorded inhibition for this entry: `Cc1ccc(O)cc1Nc1ccnc2cc(-c3ccccn3)ccc12`
1.95

State the recorded inhibition for this entry: `CCn1cc(-c2ccnc3[nH]ccc23)c(-c2cccc(NC(=O)Nc3ccc(OCc4ccccc4)cc3)c2)n1`
0.47

State the recorded inhibition for this entry: `NS(=O)(=O)c1ccc(N/N=C2\C(=O)Nc3ccc4ncccc4c32)cc1`
79.7

State the recorded inhibition for this entry: `CS(=O)(=O)CCNCc1coc(-c2ccc3ncnc(Nc4ccc(OCc5ccccc5)cc4)c3c2)c1`
-3.62

State the recorded inhibition for this entry: `COc1cc(N2CCN(C(C)C)CC2)ccc1Nc1nc(Nc2ccc(F)cc2C(N)=O)c2cc[nH]c2n1`
-2.54

State the recorded inhibition for this entry: `CCn1c(-c2nonc2N)nc2cnc(Oc3cccc(NC(=O)c4ccc(N(C)C)cc4)c3)cc21`
-1.33

###

# target-or-test-system: MAP kinase-interacting serine/threonine-protein kinase 1 (Homo sapiens)
# condition-notes: at 0.1 µM
# Description: GSK_PKIS: MKNK1 mean inhibition at 0.1 uM [Nanosyn]
measured-attribute: inhibition (%)
State just the number; it will be interpreted in %.

State the recorded inhibition for this entry: `CCN(CC)S(=O)(=O)c1ccc(OC)c(Nc2ncc(-c3ccccc3)o2)c1`
1.28

State the recorded inhibition for this entry: `COc1ccc(CNC(=O)c2ccc(-c3cc(-c4nnc(C)o4)ccc3C)cc2)cc1`
4.23

State the recorded inhibition for this entry: `CCCN1CCC(c2ccc(Nc3nc(Nc4cc(F)ccc4C(N)=O)c4cc[nH]c4n3)c(OC)c2)CC1`
5.57

State the recorded inhibition for this entry: `Nc1nc(-c2cccc(Cl)c2)c(-c2ccc3ncccc3n2)s1`
3.39

State the recorded inhibition for this entry: `COc1cc2ncn(-c3cc(OCc4ccccc4C(F)(F)F)c(C(=O)N(C)C)s3)c2cc1OC`
0.52

State the recorded inhibition for this entry: `CNC(=O)c1cncc(/C=C/c2ccccc2Cl)c1`
4.17

State the recorded inhibition for this entry: `Nc1nc(-c2ccc(F)cc2)c(-c2ccc3ncccc3n2)s1`
4.39

State the recorded inhibition for this entry: `COC(=O)Nc1nc2ccc(S(=O)(=O)c3ccc(NC(=O)Nc4cc(C(F)(F)F)ccc4F)cc3)cc2[nH]1`
1.27

State the recorded inhibition for this entry: `CCn1c(-c2nonc2N)nc2c(C#CC(C)(C)O)nc(OC[C@H](N)c3ccccc3)cc21`
1.77

State the recorded inhibition for this entry: `CS(=O)(=O)CCNCc1ccc(-c2ccc3ncnc(Nc4ccc(OCc5ccccc5)c(C(F)(F)F)c4)c3c2)o1`
2.1

###

# target-or-test-system: Serine/threonine-protein kinase 26 (Homo sapiens) (UniProt Q9P289);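 further: mean inhibition of MST4 kinase activity, reported from the GSK PKIS inhibitor-set screening panel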
# Sequence (Q9P289 2-416 limits assumed): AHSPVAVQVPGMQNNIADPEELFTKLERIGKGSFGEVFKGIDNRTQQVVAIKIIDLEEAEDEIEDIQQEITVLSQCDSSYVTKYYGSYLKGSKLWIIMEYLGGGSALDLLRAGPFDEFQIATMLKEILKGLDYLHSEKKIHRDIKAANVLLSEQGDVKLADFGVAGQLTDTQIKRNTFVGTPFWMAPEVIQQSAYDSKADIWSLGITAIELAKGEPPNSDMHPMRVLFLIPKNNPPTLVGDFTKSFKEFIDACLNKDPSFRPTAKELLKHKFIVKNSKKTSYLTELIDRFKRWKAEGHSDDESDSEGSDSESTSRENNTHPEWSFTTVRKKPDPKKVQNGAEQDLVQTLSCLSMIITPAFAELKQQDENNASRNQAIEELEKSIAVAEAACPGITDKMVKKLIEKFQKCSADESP
# condition-notes: at 1 µM
measured-attribute: inhibition (%)
State just the number; it will be interpreted in %.

State the recorded inhibition for this entry: `CN1CCC(n2cnc(-c3ccc(F)cc3)c2-c2ccnc(Nc3ccccc3)n2)CC1`
5.17

State the recorded inhibition for this entry: `COc1cc(N2CCN(C(C)C)CC2)ccc1Nc1nc(Nc2ccc(F)cc2C(N)=O)c2cc[nH]c2n1`
2.73

State the recorded inhibition for this entry: `CNC(=O)c1cc(-c2ccc(F)cc2)cc(-c2ccc(S(=O)(=O)N3CCCC3)cc2)c1N`
-1.61

###

Please provide measured inhibition for the entries that follow.
# target-or-test-system: Rho-associated protein kinase 2 (Homo sapiens) (UniProt O75116);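 further: values are averaged inhibition readings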
# Sequence (O75116 whole entry, looked up): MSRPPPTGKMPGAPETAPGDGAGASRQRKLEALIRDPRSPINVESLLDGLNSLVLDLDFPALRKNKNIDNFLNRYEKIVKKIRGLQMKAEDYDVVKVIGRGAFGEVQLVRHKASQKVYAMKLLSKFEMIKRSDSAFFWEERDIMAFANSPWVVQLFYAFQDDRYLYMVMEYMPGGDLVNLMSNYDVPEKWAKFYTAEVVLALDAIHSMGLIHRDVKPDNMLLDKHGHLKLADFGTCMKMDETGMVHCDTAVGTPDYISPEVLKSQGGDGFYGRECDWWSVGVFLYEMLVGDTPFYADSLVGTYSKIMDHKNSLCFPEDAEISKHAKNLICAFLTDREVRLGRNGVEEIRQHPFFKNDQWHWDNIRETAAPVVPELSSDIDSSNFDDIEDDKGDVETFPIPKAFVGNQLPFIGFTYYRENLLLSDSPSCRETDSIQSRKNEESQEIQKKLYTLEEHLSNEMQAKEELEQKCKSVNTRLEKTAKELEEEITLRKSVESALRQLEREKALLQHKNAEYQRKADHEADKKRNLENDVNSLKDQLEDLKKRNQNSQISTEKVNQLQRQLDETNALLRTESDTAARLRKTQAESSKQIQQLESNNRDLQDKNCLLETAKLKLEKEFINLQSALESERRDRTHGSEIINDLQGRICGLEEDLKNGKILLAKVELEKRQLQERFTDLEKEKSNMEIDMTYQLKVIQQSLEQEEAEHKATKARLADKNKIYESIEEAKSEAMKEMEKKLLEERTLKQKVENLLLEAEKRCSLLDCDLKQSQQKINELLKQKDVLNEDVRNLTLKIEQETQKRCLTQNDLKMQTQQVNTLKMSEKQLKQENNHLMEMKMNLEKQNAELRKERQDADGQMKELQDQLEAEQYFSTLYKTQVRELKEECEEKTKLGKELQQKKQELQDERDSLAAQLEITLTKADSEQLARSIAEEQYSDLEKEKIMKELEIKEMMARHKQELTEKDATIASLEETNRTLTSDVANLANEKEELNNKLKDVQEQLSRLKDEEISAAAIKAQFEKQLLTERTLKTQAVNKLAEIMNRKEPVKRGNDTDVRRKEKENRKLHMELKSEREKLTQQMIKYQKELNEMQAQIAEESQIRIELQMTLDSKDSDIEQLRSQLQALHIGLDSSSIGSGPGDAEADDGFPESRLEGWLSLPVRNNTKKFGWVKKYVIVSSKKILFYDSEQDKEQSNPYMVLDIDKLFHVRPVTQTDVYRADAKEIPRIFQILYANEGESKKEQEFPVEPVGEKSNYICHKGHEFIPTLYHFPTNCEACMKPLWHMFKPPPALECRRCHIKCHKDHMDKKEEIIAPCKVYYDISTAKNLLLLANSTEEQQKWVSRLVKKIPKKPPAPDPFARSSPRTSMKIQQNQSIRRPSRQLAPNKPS
# condition-notes: at 0.1 µM
State just the number; it will be interpreted in %.

State the recorded inhibition for this entry: `Cc1ccc2c(-c3ccnc(Nc4ccccc4)n3)c(-c3ccc(F)cc3)nn2n1`
2.77

State the recorded inhibition for this entry: `c1cc(-c2cnn3nc(N4CCOCC4)ccc23)nc(NC2CC2)n1`
2.62

State the recorded inhibition for this entry: `FC(F)(F)c1cccc(-c2nn3ncccc3c2-c2ccnc(Nc3ccc4c(c3)OCCO4)n2)c1`
0

State the recorded inhibition for this entry: `COc1ccc2[nH]c3c4[nH]c5ccc(OC)cc5c4c4c(c3c2c1)C(=O)NC4=O`
6.62

State the recorded inhibition for this entry: `O=C(O[C@H]1CN[C@H](C#Cc2cc3ncnc(Nc4ccc(Cc5ccccc5)cc4)c3s2)C1)N1CCOCC1`
1.88

State the recorded inhibition for this entry: `Nc1nc(-c2ccc(F)cc2)c(-c2ccc3ncccc3n2)s1`
4.08

State the recorded inhibition for this entry: `COc1cccc(-n2ncc3c(N/N=C/c4ccc(F)cc4)ncnc32)c1`
4.65

State the recorded inhibition for this entry: `Fc1ccc(-c2nn3ccccc3c2-c2ccncc2)cc1`
5.66

State the recorded inhibition for this entry: `COc1ccc2c(-c3ccnc(Nc4cccc(OC(F)(F)F)c4)n3)cnn2n1`
3.74

State the recorded inhibition for this entry: `CCNC(=O)O[C@H]1CN[C@H](C#Cc2cc3ncnc(Nc4ccc(OCc5cccc(F)c5)c(Cl)c4)c3s2)C1`
2.86

State the recorded inhibition for this entry: `CNC(=O)c1cccc(C#Cc2cncnc2Nc2ccc(OCc3cccc(F)c3)c(Cl)c2)c1`
0.98

State the recorded inhibition for this entry: `CS(=O)(=O)CCNCc1ccc(-c2ccc3ncnc(Nc4ccc(OCc5ccccc5)c(C(F)(F)F)c4)c3c2)o1`
2.7

State the recorded inhibition for this entry: `Nc1ncc(-c2cccc(S(N)(=O)=O)c2)c2scc(-c3ccc(F)c(Cl)c3)c12`
2.98

State the recorded inhibition for this entry: `c1ccc(-c2nc3n(c2-c2ccc4c(c2)OCO4)CCC3)nc1`
5.54

###

# target-or-test-system: Serine/threonine-protein kinase pim-2 (Homo sapiens);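 further: each value is a mean of the inhibition measurements against the kinase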
# condition-notes: at 1 µM
Please provide measured inhibition for the entries that follow.

inhibition of `Fc1ccc(-c2nn3ccccc3c2-c2ccncc2)cc1` on Serine/threonine-protein kinase pim-2 (Homo sapiens)?
-0.05%

inhibition of `COC(=O)c1sc(-n2cnc3cc(OC)c(OC)cc32)cc1OCc1ccccc1C(F)(F)F` on Serine/threonine-protein kinase pim-2 (Homo sapiens)?
-0.34%

inhibition of `CS(=O)(=O)CCNCc1coc(-c2ccc3ncnc(Nc4ccc(OCc5ccccc5)cc4)c3c2)c1` on Serine/threonine-protein kinase pim-2 (Homo sapiens)?
0.48%

inhibition of `O=C(O[C@H]1CN[C@H](C#Cc2cc3ncnc(Nc4ccc(Cc5ccccc5)cc4)c3s2)C1)N1CCOCC1` on Serine/threonine-protein kinase pim-2 (Homo sapiens)?
1.06%

inhibition of `COc1cc(/C=N/Nc2ncnc3[nH]ncc23)ccc1O` on Serine/threonine-protein kinase pim-2 (Homo sapiens)?
4.24%

###

Please provide measured inhibition for the entries that follow.
# target-or-test-system: G protein-coupled receptor kinase 6 (Homo sapiens) (UniProt P43250);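 further: mean percent inhibition of GRK6, GSK PKIS screen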
# Sequence (P43250 whole entry, looked up): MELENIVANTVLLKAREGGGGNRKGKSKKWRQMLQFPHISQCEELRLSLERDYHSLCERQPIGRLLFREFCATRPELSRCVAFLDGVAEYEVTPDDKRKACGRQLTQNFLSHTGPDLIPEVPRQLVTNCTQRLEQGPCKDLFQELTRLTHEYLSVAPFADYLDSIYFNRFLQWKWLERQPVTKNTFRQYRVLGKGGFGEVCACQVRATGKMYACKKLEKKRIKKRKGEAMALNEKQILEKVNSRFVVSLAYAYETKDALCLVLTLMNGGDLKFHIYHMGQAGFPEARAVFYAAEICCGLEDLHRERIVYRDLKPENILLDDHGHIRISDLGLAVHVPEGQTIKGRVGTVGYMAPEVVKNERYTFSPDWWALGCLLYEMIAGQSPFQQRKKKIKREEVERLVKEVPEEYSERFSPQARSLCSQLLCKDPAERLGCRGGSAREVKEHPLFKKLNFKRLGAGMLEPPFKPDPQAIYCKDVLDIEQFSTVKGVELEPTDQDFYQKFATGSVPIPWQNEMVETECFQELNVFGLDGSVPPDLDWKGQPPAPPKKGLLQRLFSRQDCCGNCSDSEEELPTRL
# condition-notes: at 0.1 µM

inhibition of `CCCN1CCC(c2ccc(Nc3nc(Nc4cc(F)ccc4C(N)=O)c4cc[nH]c4n3)c(OC)c2)CC1` on G protein-coupled receptor kinase 6 (Homo sapiens) (UniProt P43250)?
16.3%

inhibition of `CN1CCC(n2cnc(-c3ccc(F)cc3)c2-c2ccnc(Nc3ccccc3)n2)CC1` on G protein-coupled receptor kinase 6 (Homo sapiens) (UniProt P43250)?
2.34%

inhibition of `Fc1ccc(-c2cc(-c3c[nH]nc3-c3ccccn3)ccn2)cc1` on G protein-coupled receptor kinase 6 (Homo sapiens) (UniProt P43250)?
7.85%

inhibition of `COc1ccc(-c2cc3c(N)ncnc3o2)cc1` on G protein-coupled receptor kinase 6 (Homo sapiens) (UniProt P43250)?
-0.25%

inhibition of `CCc1nn2ncccc2c1-c1ccnc(NC2CC2)n1` on G protein-coupled receptor kinase 6 (Homo sapiens) (UniProt P43250)?
3.01%

inhibition of `c1ccc(-c2nc3n(c2-c2ccc4c(c2)OCO4)CCC3)nc1` on G protein-coupled receptor kinase 6 (Homo sapiens) (UniProt P43250)?
3.19%

inhibition of `CNC(=O)c1cncc(/C=C/c2ccccc2Cl)c1` on G protein-coupled receptor kinase 6 (Homo sapiens) (UniProt P43250)?
1.74%

inhibition of `O=C(Nc1n[nH]c2cc(-c3ccc(F)cc3)ccc12)C1CC1` on G protein-coupled receptor kinase 6 (Homo sapiens) (UniProt P43250)?
1.59%

inhibition of `COc1cc(N2CCN(C(C)C)CC2)ccc1Nc1nc(Nc2ccc(F)cc2C(N)=O)c2cc[nH]c2n1` on G protein-coupled receptor kinase 6 (Homo sapiens) (UniProt P43250)?
3.9%

inhibition of `CS(=O)(=O)CCNCc1ccc(-c2ccc3ncnc(Nc4ccc(OCc5ccccc5)c(C(F)(F)F)c4)c3c2)o1` on G protein-coupled receptor kinase 6 (Homo sapiens) (UniProt P43250)?
-0.85%

inhibition of `COc1cccc(-c2c[nH]c3c(N/N=C/c4ccncc4)ncnc23)c1` on G protein-coupled receptor kinase 6 (Homo sapiens) (UniProt P43250)?
-1.66%

inhibition of `COC(=O)Nc1nc2ccc(S(=O)(=O)c3ccc(NC(=O)Nc4cc(C(F)(F)F)ccc4F)cc3)cc2[nH]1` on G protein-coupled receptor kinase 6 (Homo sapiens) (UniProt P43250)?
-1.79%

inhibition of `CCN1CCC(CC(=O)Nc2n[nH]c3nnc(-c4cccc(F)c4F)cc23)CC1` on G protein-coupled receptor kinase 6 (Homo sapiens) (UniProt P43250)?
1.19%
